Biological target: T1, 4H963-AA
T1 chain: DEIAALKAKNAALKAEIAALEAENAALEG
Assay: two-hybrid library CCmax;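 note: natural log of median RNA to DNA barcode read ratio; higher means stronger binding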
Details: mean of both orientations
ASSAY ENDPOINT: interaction score

Here are 4 binders together with their reported answers.
Q) Report interaction score for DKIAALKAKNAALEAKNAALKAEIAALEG [4H3001-AA] please.
A) -1.94

Q) Now consider DKNAALEAKNAALEAKIAALEAKIAALEG [4H3493-AA] and answer again.
A) -1.58

Q) And for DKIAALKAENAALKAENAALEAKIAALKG [4H2774-AA] ?
A) -0.529

Q) And what about the binder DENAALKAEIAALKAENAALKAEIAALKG [4H1626-AA] ?
A) -1.46

1: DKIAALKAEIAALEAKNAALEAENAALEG [4H2611-AA]
2: DKIAALEAKNAALKAEIAALEAKNAALKG [4H2504-AA]
Q) Form: Entry with minimum interaction score (choose one): 1 / 2 Field: selected label. Fill in the label of the entry you choose.
A) 1
